system under test: Peroxisome proliferator-activated receptor delta (Homo sapiens)
Sequence (Q03181 whole entry): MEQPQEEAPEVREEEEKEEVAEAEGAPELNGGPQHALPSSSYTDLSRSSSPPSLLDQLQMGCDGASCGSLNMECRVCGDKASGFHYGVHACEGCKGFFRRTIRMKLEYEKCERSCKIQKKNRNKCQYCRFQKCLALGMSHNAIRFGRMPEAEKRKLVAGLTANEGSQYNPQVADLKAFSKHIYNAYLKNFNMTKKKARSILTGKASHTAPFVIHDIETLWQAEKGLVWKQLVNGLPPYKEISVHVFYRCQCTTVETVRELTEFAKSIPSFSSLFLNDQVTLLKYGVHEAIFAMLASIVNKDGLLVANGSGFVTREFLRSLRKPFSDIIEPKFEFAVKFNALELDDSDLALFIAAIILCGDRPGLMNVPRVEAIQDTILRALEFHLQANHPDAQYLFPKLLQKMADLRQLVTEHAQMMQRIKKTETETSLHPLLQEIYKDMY
procedure summary: Transactivation of human PPARdelta expressed in monkey CV-1 cells coexpressing TK-PPRE-Luc after 24 hrs by luciferase reporter gene assay
pEC50: −log10 of the molar value.
measure name: pEC50

{"columns": ["compound", "pEC50"],
 "data": [
  ["Cc1cc(SC(Cc2ccccc2)c2ccc(-c3cccc(C(F)(F)F)c3)cc2)ccc1OCC(=O)O (centres undefined)", 7.74],
  ["Cc1cc(SC(Cc2cc(Cl)ccc2F)c2ccc(-c3cccc(C(F)(F)F)c3)cc2)ccc1OCC(=O)O (centres undefined)", 8.28],
  ["Cc1cc(SC(Cc2cc(F)c(F)c(F)c2)c2ccc(-c3cccc(C(F)(F)F)c3)cc2)ccc1OCC(=O)O (centres undefined)", 7.92],
  ["Cc1cc(SC(Cc2cc(Cl)ccc2F)c2ccc(-c3ccccc3)cc2)ccc1OCC(=O)O (centres undefined)", 7.59],
  ["Cc1cc(SC(Cc2cc(F)ccc2F)c2ccc(-c3ccc(F)cc3)cc2)ccc1OCC(=O)O (centres undefined)", 8.40],
  ["Cc1cc(SC(Cc2ccccc2)c2ccc(-c3ccc(F)cc3)cc2)ccc1OCC(=O)O (centres undefined)", 8.15]
]}

1. Cc1cc(SC(Cc2cc(F)c(F)c(F)c2)c2ccc(-c3ccccc3)cc2)ccc1OCC(=O)O (centres undefined)
2. Cc1cc(SC(Cc2ccccc2)c2ccc(-c3cc(F)c(F)c(F)c3)cc2)ccc1OCC(=O)O (centres undefined)
3. Cc1cc(SC(Cc2cc(C(F)(F)F)ccc2F)c2ccc(-c3ccccc3)cc2)ccc1OCC(=O)O (centres undefined)
Order the records by pEC50, with each subsequent value no larger than the one before. List each label, following the requested order.
2, 3, 1
(2: 8.35, 3: 8.00, 1: 7.07)

----------
procedure summary: Metabolic stability in mouse liver microsomes assessed as parent compound remaining at 1 uM after 30 mins in presence of NADPH by LC-MS/MS analysis
Type: ADME, microsome
condition: read-out: Stability
measure name: remaining at 0.5 h, 1 µM

Sample Cc1cc(SC(Cc2ccccc2)c2ccc(-c3ccc(C(F)(F)F)cc3)cc2)ccc1OCC(=O)O (stereo unspecified) ; remaining at 0.5 h, 1 µM observed: > 100%

----------
procedure summary: Tmax in Sprague-Dawley rat at 10 mg/kg, po by LC-MS/MS analysis
Assay type: ADME, organism-based
condition: in vivo
measure name: Tmax (h)
Lab book: enter the figure in h, no units written.

For record Cc1cc(SC(Cc2ccccc2)c2ccc(-c3ccc(C(F)(F)F)cc3)cc2)ccc1OCC(=O)O (stereo unspecified) the listed Tmax is 4.5

----------
procedure summary: Metabolic stability in human liver microsomes assessed as parent compound remaining at 1 uM after 30 mins in presence of NADPH by LC-MS/MS analysis
Format: ADME, microsome
condition: read-out: Stability
measure name: remaining at 0.5 h, 1 µM (%)
Report as a plain number; the unit % is understood.

Reported remaining at 0.5 h, 1 µM ( Cc1cc(SC(Cc2ccccc2)c2ccc(-c3ccc(C(F)(F)F)cc3)cc2)ccc1OCC(=O)O (stereo unspecified) ) = 99.8

----------
procedure summary: Half life in Sprague-Dawley rat at 1 mg/kg, iv by LC-MS/MS analysis
Type: ADME, organism-based
condition: in vivo
measure name: half-life (h)
Unit h implied. Number only.

Looking up Cc1cc(SC(Cc2ccccc2)c2ccc(-c3ccc(C(F)(F)F)cc3)cc2)ccc1OCC(=O)O (stereo unspecified) , I found its half-life recorded as 3.6

----------
system under test: CYP2D6 (Homo sapiens, UniProt P10635)
Sequence (P10635 whole entry): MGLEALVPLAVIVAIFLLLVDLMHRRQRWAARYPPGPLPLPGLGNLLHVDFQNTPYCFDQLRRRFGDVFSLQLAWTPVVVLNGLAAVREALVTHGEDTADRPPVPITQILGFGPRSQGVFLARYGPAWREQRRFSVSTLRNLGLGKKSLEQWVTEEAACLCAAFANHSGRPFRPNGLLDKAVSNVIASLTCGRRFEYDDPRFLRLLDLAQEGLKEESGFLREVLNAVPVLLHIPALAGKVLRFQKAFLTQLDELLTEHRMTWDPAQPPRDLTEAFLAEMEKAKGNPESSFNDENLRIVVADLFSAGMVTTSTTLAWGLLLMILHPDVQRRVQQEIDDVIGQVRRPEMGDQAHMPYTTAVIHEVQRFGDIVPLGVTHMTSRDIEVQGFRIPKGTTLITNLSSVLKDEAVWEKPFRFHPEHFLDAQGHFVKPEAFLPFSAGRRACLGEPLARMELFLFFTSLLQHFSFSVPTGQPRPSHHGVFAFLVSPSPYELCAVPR
procedure summary: Inhibition of dextromethorphan O-demethylase activity of CYP2D6 in human liver microsomes at 10 uM preincubated for 5 mins followed by NADPH addition measured after 15 mins by LC-MS/MS analysis
Format: ADME
condition: probe dextromethorphan (O-demethylation)
measure name: inhibition at 0.25 h, 10 µM (%)
Lab book: enter the figure in %, no units written.

Looking up Cc1cc(SC(Cc2ccccc2)c2ccc(-c3ccc(C(F)(F)F)cc3)cc2)ccc1OCC(=O)O (stereo unspecified) , I see its inhibition at 0.25 h, 10 µM listed as 0

----------
system under test: CYP2C19 (Homo sapiens, UniProt P33261)
Sequence (P33261 whole entry): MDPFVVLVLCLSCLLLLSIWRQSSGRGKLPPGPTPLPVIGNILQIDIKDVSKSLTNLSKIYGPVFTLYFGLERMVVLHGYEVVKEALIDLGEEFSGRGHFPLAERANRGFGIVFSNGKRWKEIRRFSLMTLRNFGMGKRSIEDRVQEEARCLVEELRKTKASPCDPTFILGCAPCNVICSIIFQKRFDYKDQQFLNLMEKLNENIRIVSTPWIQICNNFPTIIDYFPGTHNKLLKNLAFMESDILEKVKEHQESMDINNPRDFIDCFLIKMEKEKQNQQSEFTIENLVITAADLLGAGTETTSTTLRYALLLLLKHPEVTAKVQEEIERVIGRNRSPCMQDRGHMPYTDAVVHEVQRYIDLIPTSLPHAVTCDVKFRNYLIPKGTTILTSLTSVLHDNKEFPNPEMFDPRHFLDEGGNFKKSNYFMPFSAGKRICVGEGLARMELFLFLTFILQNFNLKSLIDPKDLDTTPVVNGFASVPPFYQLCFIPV
procedure summary: Inhibition of S-mephenytoin 4-hydroxylase activity of CYP2C19 in human liver microsomes at 10 uM preincubated for 5 mins followed by NADPH addition measured after 15 mins by LC-MS/MS analysis
Assay type: ADME
condition: probe S-mephenytoin (4-hydroxylation)
measure name: inhibition at 0.25 h, 10 µM (%)
Could you give me the number in %? Just the number is fine.

Per the records, this compound ( Cc1cc(SC(Cc2ccccc2)c2ccc(-c3ccc(C(F)(F)F)cc3)cc2)ccc1OCC(=O)O (stereo unspecified) ) has inhibition at 0.25 h, 10 µM equal to 4.3

----------
# pEC50 values compiled below
system under test: Peroxisome proliferator-activated receptor gamma (Homo sapiens)
Sequence (P37231 whole entry): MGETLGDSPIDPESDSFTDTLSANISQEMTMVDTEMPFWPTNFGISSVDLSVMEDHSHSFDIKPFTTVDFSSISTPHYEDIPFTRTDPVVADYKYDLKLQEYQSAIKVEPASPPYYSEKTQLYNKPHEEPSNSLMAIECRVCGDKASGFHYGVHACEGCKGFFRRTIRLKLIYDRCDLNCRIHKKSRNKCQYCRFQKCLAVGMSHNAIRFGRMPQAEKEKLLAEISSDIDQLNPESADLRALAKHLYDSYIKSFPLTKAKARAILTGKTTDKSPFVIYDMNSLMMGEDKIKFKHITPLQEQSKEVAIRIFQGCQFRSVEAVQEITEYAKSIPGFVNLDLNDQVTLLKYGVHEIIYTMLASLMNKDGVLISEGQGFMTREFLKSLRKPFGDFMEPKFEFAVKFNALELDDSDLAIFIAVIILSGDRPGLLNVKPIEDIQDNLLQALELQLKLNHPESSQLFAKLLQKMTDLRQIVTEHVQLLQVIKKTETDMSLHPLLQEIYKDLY
procedure summary: Transactivation of human PPARgamma expressed in monkey CV-1 cells coexpressing TK-PPRE-Luc after 24 hrs by luciferase reporter gene assay
pEC50: −log10 of the molar value.

Reference set, count: 5
{"columns": ["molecule", "system under test", "measure name", "experimental result"],
 "data": [
  ["Cc1cc(SC(Cc2ccccc2)c2ccc(-c3cc(F)c(F)c(F)c3)cc2)ccc1OCC(=O)O (stereo not given)", "Peroxisome proliferator-activated receptor gamma (Homo sapiens)", "pEC50", "< 5.00"],
  ["Cc1cc(SC(Cc2cc(Cl)ccc2F)c2ccc(-c3cccc(C(F)(F)F)c3)cc2)ccc1OCC(=O)O (stereo not given)", "Peroxisome proliferator-activated receptor gamma (Homo sapiens)", "pEC50", "< 5.00"],
  ["Cc1cc(SC(Cc2cc(C(F)(F)F)ccc2F)c2ccc(-c3ccccc3)cc2)ccc1OCC(=O)O (stereo not given)", "Peroxisome proliferator-activated receptor gamma (Homo sapiens)", "pEC50", "< 5.00"],
  ["Cc1cc(SC(Cc2cc(F)ccc2F)c2ccc(-c3ccc(F)cc3)cc2)ccc1OCC(=O)O (stereo not given)", "Peroxisome proliferator-activated receptor gamma (Homo sapiens)", "pEC50", "< 5.00"],
  ["Cc1cc(SC(Cc2ccccc2)c2ccc(-c3ccc(C(F)(F)F)cc3)nc2)ccc1OCC(=O)O (stereo not given)", "Peroxisome proliferator-activated receptor gamma (Homo sapiens)", "pEC50", "< 5.00"]
]}

Known value: Peroxisome proliferator-activated receptor gamma (Homo sapiens) pEC50 of the molecule Cc1cc(SC(Cc2ccccc2)c2ccc(-c3cccc(C(F)(F)F)c3)cc2)ccc1OCC(=O)O (stereo not given) equals < 5.00

The measured pEC50 that Cc1cc(SC(Cc2cc(Cl)ccc2F)c2ccc(-c3ccc(F)cc3)cc2)ccc1OCC(=O)O (stereo not given) showed for Peroxisome proliferator-activated receptor gamma (Homo sapiens) is < 5.00

Summary line: Cc1cc(SC(Cc2ccccc2)c2ccc(-c3ccc(C(F)(F)F)cc3)cc2)ccc1OCC(=O)O (stereo not given) , Peroxisome proliferator-activated receptor gamma (Homo sapiens), reported pEC50 = < 5.00

Kindly note: Peroxisome proliferator-activated receptor gamma (Homo sapiens), Cc1cc(SC(Cc2cc(C(F)(F)F)ccc2F)c2ccc(-c3cccc(C(F)(F)F)c3)cc2)ccc1OCC(=O)O (stereo not given) , pEC50 value reported: < 5.00

Value (pEC50, Peroxisome proliferator-activated receptor gamma (Homo sapiens)) for record Cc1cc(SC(Cc2cc(F)c(F)c(F)c2)c2ccc(-c3cccc(C(F)(F)F)c3)cc2)ccc1OCC(=O)O (stereo not given) = < 5.00

----------
system under test: Peroxisome proliferator-activated receptor delta (Homo sapiens)
procedure summary: Transactivation of human PPARdelta expressed in monkey CV-1 cells coexpressing TK-PPRE-Luc after 24 hrs by luciferase reporter gene assay
Format: cell-based
measure name: EC50 (nM)

Field: example entries. Status: answers known.
{"columns": ["molecule", "unit string", "EC50"],
 "data": [
  ["Cc1cc(S[C@@H](Cc2ccccc2)c2ccc(-c3ccc(C(F)(F)F)cc3)cc2)ccc1OCC(=O)O", "nM", 6.1],
  ["Cc1cc(SC(Cc2cc(F)c(F)c(F)c2)c2ccc(-c3ccc(F)cc3)cc2)ccc1OCC(=O)O (stereo not drawn)", "nM", 65],
  ["Cc1cc(SC(Cc2cc(F)ccc2F)c2ccc(-c3cccc(C(F)(F)F)c3)cc2)ccc1OCC(=O)O (stereo not drawn)", "nM", 9.1],
  ["Cc1cc(SC(Cc2cc(F)c(F)c(F)c2)c2ccc(-c3ccc(C(F)(F)F)cc3)nc2)ccc1OCC(=O)O (stereo not drawn)", "nM", 56],
  ["Cc1cc(SC(Cc2cc(Cl)ccc2F)c2ccc(-c3cc(F)c(F)c(F)c3)cc2)ccc1OCC(=O)O (stereo not drawn)", "nM", 6.9]
]}

I. Cc1cc(SC(Cc2cc(F)ccc2F)c2ccc(-c3cc(F)c(F)c(F)c3)cc2)ccc1OCC(=O)O (stereo not drawn)
II. Cc1cc(SC(Cc2cc(Cl)ccc2F)c2ccc(-c3ccc(F)cc3)cc2)ccc1OCC(=O)O (stereo not drawn)
Of the two listed items, I and II , which carries the larger EC50 figure? Select an item and report its label.
II
